Cited source: PubChem BioAssay (NCI)

Readings of TGI for the listed compounds
- Tested on: NCI-H23 lung
- experimental protocol: NCI tumour cell line growth inhibition, 48 h

Consider the reported TGI for these compounds:
compound	TGI
Cc1cc2nc(C(Cl)Cl)nc(-c3ccc(Cl)cc3)n2n1	2.42 µM
C[C@@H](CS(C)(=O)=O)Nc1ncc2cc(Oc3ccc(F)cc3F)c(=O)n(C)c2n1	> 25 µM
O=C(N/C(=C\c1cc(Cl)ccc1Cl)c1nc2[nH]c(=S)[nH]c(=O)c2[nH]1)c1ccccc1	> 65.8 µM
CCOC(=O)COc1cccc2c1C(=O)CCO2	> 100 µM
CC(C)=CCCc1c(C)ccc2c1C(=O)C(=O)C(C(C)C)=C2	8.52 µM

Considering NC1c2c(Br)sc(N3CCCC3)c2C(=O)C1O (stereo unspecified) , its TGI with NCI-H23 lung was recorded as > 50 µM

Considering CCc1ccc2c(c1)C(=O)c1c-2n(CCCBr)c(=O)c2cc([N+](=O)[O-])ccc12 , its TGI with NCI-H23 lung was recorded as > 50 µM

Considering O=[N+]([O-])c1cnc(Sc2ccncn2)s1 , its TGI with NCI-H23 lung was recorded as 26.4 µM

Considering CCOc1ccccc1-n1c(CN2CCN(C(=O)COc3ccc(CNCCCCCCN4C5CCCC4CC(OC(=O)Nc4cc(C)ccc4OC)C5)cc3)CC2)nc2ccccc2c1=O (stereo unspecified) , its TGI with NCI-H23 lung was recorded as 3.66 µM

Considering O[C@H]1[C@H]2c3cc4c(cc3CN3CCC(=C[C@@H]1O)[C@H]23)OCO4 , its TGI with NCI-H23 lung was recorded as 13.7 µM

Considering NS(=O)(=O)c1ccccc1C(=O)N/N=C(\c1nc2ccc([N+](=O)[O-])cc2[nH]c1=O)C(O)c1ccc([N+](=O)[O-])cc1 (stereo unspecified) , its TGI with NCI-H23 lung was recorded as > 100 µM

* * *

- System: LOX IMVI melanoma
- experimental protocol: NCI tumour cell line growth inhibition, 48 h
readout label: log10 TGI (log10 of the value in µM)
All values: log10 TGI [µM].

Consider the reported log10 TGI for these compounds:
compound	log10 TGI
Cc1ccc(Nc2nc(=O)c3c4ccccc4n(C(=O)OC(C)(C)C)c3s2)cc1	1.67
CC1=CC(=O)[C@@H](O)[C@]2(C)[C@H]3[C@@]4(O)OC[C@]35[C@H]([C@@H](C)[C@H]4O)[C@@H](OC(=O)C(C)(C)CO)C(=O)O[C@@H]5C[C@@H]12	-1.13
O=C1c2ccccc2C(=O)c2sc(Nc3cccc(Cl)c3)nc21	0.36
O=C1/C(=C/c2ccc([N+](=O)[O-])cc2)COc2ccc(O)c(O)c21	0.36
O=C(C1OC1c1ccc(Cl)cc1)C12CC3CC(CC(C3)C1)C2 (configuration not stated)	1.22

Now consider a different compound.
Form: compound = COc1cccc2c1C(=O)C1=C(C2=O)C(O)CC(C)(C)O1 (configuration not stated) ; log10 TGI = 1.76

* * *

- System: HCC-2998 colon
- experimental protocol: NCI tumour cell line growth inhibition, 48 h
Readings of TGI for the listed compounds

compound	value reported
O=C1N(C2CCCCC2)C(=O)N1C1CCCCC1	> 47.3 µM
COc1ccc(/C=c2/sc3n(c2=O)C(c2ccccc2)C2(O)CCCCC2N=3)cc1 (stereo not given)	> 12.5 µM

Now consider a different compound.
Form: compound = CCNC1C2(CCCCC2)NC(=O)C12CCCCC2 (stereo not given) ; TGI = > 100 µM
